Read-out: Insulin-like growth factor-binding protein 1 (IGFBP1), IGFBP1 (gene 3484)
ASSAY REMARKS: LTEA_HepaRG_IGFBP1: Life Technologies and Expression Analysis (LTEA) Assay for Insulin-like growth factor-binding protein 1 (IGFBP1) using HepaRG (AID 2283508)
TEST PARAMETERS: mRNA level, 48 h; actives raise or lower the signal
The source made the active and inactive calls. The calls were made as follows: active = hit-call score of the fitted dose curve at least 0.9, where 1 is the maximum; inactive = score below 0.9.
Response enum: active, inactive

Outcome logged for `CCOCCOC(C)=O` in this assay:
inactive

Outcome logged for `O=C(NC(=O)c1c(F)cccc1F)Nc1cc(Cl)c(OC(F)(F)C(F)F)c(Cl)c1` in this assay:
inactive

Outcome logged for `c1ccc(-c2ccccc2)cc1` in this assay:
inactive

Outcome logged for `COc1ccc(O)c(C(C)(C)C)c1` in this assay:
inactive

Outcome logged for `O=C(O)C(F)(F)C(F)(F)C(F)(F)C(F)(F)C(F)(F)C(F)(F)C(F)(F)C(F)(F)F` in this assay:
active
